Experiment: in vitro
Conditions: human, hek293t cells
Lab note - cut at 90% for viability at 48 h, 25 µM: true if strictly below, false if not.

Worked cases, answers included:
• CCCNC(=O)C(C#N)=Cc1ccc(-n2cncn2)c(C)c1 = false
• C=CC(=O)N(Cc1c(C)nn(CC)c1C)c1ccc2c(c1)COC2 = true
• C=CC(=O)NC(C)c1nnnn1-c1ccccc1 (centres unmarked) = false
• CC(Cl)C(=O)N1CCN(c2oc(-c3ccco3)nc2C#N)CC1 (centres unmarked) = true
• CN(C(=O)CCl)C(c1ccc(Cl)cc1)C(F)(F)F (centres unmarked) = true

q: Quick check: does Cc1nn(CC(C)C)c(Cl)c1C1CCCN1C(=O)C(C)Cl (centres unmarked) have viability at 48 h, 25 µM under 90%?
a: true

q: Given Cc1csc(COC2CCN(C(=O)CCl)C2)n1 (centres unmarked) , is recorded viability at 48 h, 25 µM strictly lower than 90%?
a: true

q: Regarding C=CC(=O)NCCc1cscn1 , kindly confirm whether its viability at 48 h, 25 µM is beneath 90%.
a: true

q: Regarding C=CC(=O)Nc1ccc(F)c(-n2nnnc2C)c1 , kindly confirm whether its viability at 48 h, 25 µM is beneath 90%.
a: false

q: Consider O=C(CCl)Nc1cc2c(cc1[N+](=O)[O-])OCCCO2 . Does its viability at 48 h, 25 µM lie strictly below 90%?
a: false

q: Threshold test, viability at 48 h, 25 µM < 90%: CC(Cl)C(=O)NC(C)c1nnnn1C1CC1 (centres unmarked)
a: true
